Origin of measurements: ChEMBL document CHEMBL1128242

tested on: Rattus norvegicus; assay: Distribution of radioactivity was determined in spleen at 3h after intravenous administration of [125I]-labeled 2-oleoglycerol 1,3-Bis-[omega-(3-amino-2,4,6-triiodophenyl)alkanoates] in rats; type: ADME, organism-based; details: in vivo
assayEndpoint: Distribution of radioactivity (% dose/g)

| compound | measuredOn | Distribution of radioactivity, % dose/g |
| --- | --- | --- |
| CCCCCCCC/C=C/CCCCCCCC(=O)OC(COC(=O)C(CC)Cc1c(I)cc(I)c(N)c1I)COC(=O)C(CC)Cc1c(I)cc(I)c(N)c1I (stereo not given) | Rattus norvegicus | 17.7 |

(1) CCCCCCCC/C=C/CCCCCCCC(=O)OC(COC(=O)CCCCc1c(I)cc(I)c(N)c1I)COC(=O)CCCCc1c(I)cc(I)c(N)c1I
(2) CCCCCCCC/C=C/CCCCCCCC(=O)OC(COC(=O)Cc1c(I)cc(I)c(N)c1I)COC(=O)Cc1c(I)cc(I)c(N)c1I
**Query** Kindly identify the item with the lower Distribution of radioactivity figure among these two: 1 and 2 Please respond with the label that marks your chosen entry.
**Result** 1

(P) CCCCCCCC/C=C/CCCCCCCC(=O)OC(COC(=O)CCCCCc1c(I)cc(I)c(N)c1I)COC(=O)CCCCCc1c(I)cc(I)c(N)c1I
(Q) CCCCCCCC/C=C/CCCCCCCC(=O)OC(COC(=O)CCCCCCc1c(I)cc(I)c(N)c1I)COC(=O)CCCCCCc1c(I)cc(I)c(N)c1I
**Query** Which of these two has the smaller recorded Distribution of radioactivity: P or Q ? Pick one; state its label.
**Result** Q

* * *

test system: Rattus norvegicus; assay: Distribution of radioactivity was determined in spleen at 24 hr after intravenous administration of [125I]-labeled 2-oleoglycerol 1,3-Bis-[omega-(3-amino-2,4,6-triiodophenyl)alkanoates] in rats; type: ADME, organism-based; conditions: in vivo
assayEndpoint: Distribution of radioactivity (% dose/g)

// worked examples, Distribution of radioactivity included
| compound | measuredNumber |
| --- | --- |
| CCCCCCCC/C=C/CCCCCCCC(=O)OC(COC(=O)CCCCCCc1c(I)cc(I)c(N)c1I)COC(=O)CCCCCCc1c(I)cc(I)c(N)c1I | 1.43 |
| CCCCCCCC/C=C/CCCCCCCC(=O)OC(COC(=O)CCCCc1c(I)cc(I)c(N)c1I)COC(=O)CCCCc1c(I)cc(I)c(N)c1I | 13.7 |
| CCCCCCCC/C=C/CCCCCCCC(=O)OC(COC(=O)Cc1c(I)cc(I)c(N)c1I)COC(=O)Cc1c(I)cc(I)c(N)c1I | 24.2 |

(a) CCCCCCCC/C=C/CCCCCCCC(=O)OC(COC(=O)CCCCCc1c(I)cc(I)c(N)c1I)COC(=O)CCCCCc1c(I)cc(I)c(N)c1I
(b) CCCCCCCC/C=C/CCCCCCCC(=O)OC(COC(=O)C(CC)Cc1c(I)cc(I)c(N)c1I)COC(=O)C(CC)Cc1c(I)cc(I)c(N)c1I (stereo not given)
**Query** // max by Distribution of radioactivity over [ a , b ] Reply with the label of the item you choose.
**Result** b
(b: 21.7 % dose/g, a: 10.4 % dose/g)

* * *

test system: Rattus norvegicus; assay: Distribution of radioactivity was determined in blood at 24 hr after intravenous administration of [125I]-labeled 2-oleoglycerol 1,3-Bis-[omega-(3-amino-2,4,6-triiodophenyl)alkanoates] in rats; format: ADME, organism-based; conditions: in vivo
assayEndpoint: Distribution of radioactivity (% dose/g)

| compound | Distribution of radioactivity [% dose/g] |
| --- | --- |
| CCCCCCCC/C=C/CCCCCCCC(=O)OC(COC(=O)CCCCc1c(I)cc(I)c(N)c1I)COC(=O)CCCCc1c(I)cc(I)c(N)c1I | 0.14 |

(1) CCCCCCCC/C=C/CCCCCCCC(=O)OC(COC(=O)CCCCCCc1c(I)cc(I)c(N)c1I)COC(=O)CCCCCCc1c(I)cc(I)c(N)c1I
(2) CCCCCCCC/C=C/CCCCCCCC(=O)OC(COC(=O)CCCCCc1c(I)cc(I)c(N)c1I)COC(=O)CCCCCc1c(I)cc(I)c(N)c1I
(3) CCCCCCCC/C=C/CCCCCCCC(=O)OC(COC(=O)Cc1c(I)cc(I)c(N)c1I)COC(=O)Cc1c(I)cc(I)c(N)c1I
(4) CCCCCCCC/C=C/CCCCCCCC(=O)OC(COC(=O)CCc1c(I)cc(I)c(N)c1I)COC(=O)CCc1c(I)cc(I)c(N)c1I
(5) CCCCCCCC/C=C/CCCCCCCC(=O)OC(COC(=O)CCCc1c(I)cc(I)c(N)c1I)COC(=O)CCCc1c(I)cc(I)c(N)c1I
**Query** Hello, I need these entries ordered by Distribution of radioactivity, highest reading first. Thanks! Reply: labels, ordered per the request.
**Result** 1, 5, 2, 4, 3
